Reference source for all entries: paper PMC8381505

- test.details: Pharmacokinetics in patients after a single dose
- Format: in vivo, human
- condition: human, serum, oral; single dose, 40 mg, mean ± SD; read-out: MRT0→∞
measurement.type: MRT inf (h)
Field format: number, assumed h, no unit text.

For the compound shown here, `COc1ncc(-c2nc(N3CCOCC3)nc3c(CN4CCC(C(C)(C)O)CC4)cc(F)cc23)cc1NS(C)(=O)=O` , give the reported MRT inf.
22.4

---

- test.details: Pharmacokinetics in patients after a single dose
- Assay type: in vivo, human
- condition: human, serum, oral; single dose, 200 mg, mean ± SD; read-out: MRT0→∞
- Source text: Additional File 5: Table S3. Mean pharmacokinetic parameters of patients after a single dose in each dosage group
measurement.type: MRT inf

# lookup: MRT inf of `COc1ncc(-c2nc(N3CCOCC3)nc3c(CN4CCC(C(C)(C)O)CC4)cc(F)cc23)cc1NS(C)(=O)=O`
21.8 h

---

- test.details: Pharmacokinetics in patients after multiple administrations
- Type: in vivo, human
- condition: human, serum, oral, 20 mg, mean
measurement.type: Tmax (h)
Value expressed in h; do not type the unit.

Tmax lookup needed for `COc1ncc(-c2nc(N3CCOCC3)nc3c(CN4CCC(C(C)(C)O)CC4)cc(F)cc23)cc1NS(C)(=O)=O` , thanks.
4

---

- test.details: Pharmacokinetics in patients after multiple administrations
- Type: in vivo, human
- condition: human, serum, oral, 40 mg, mean ± SD
measurement.type: AUC(0-t) (ng·h/mL)
Your answer is read as ng·h/mL, so omit the unit and give the number.

Would you mind telling me what AUC(0-t) value was observed for `COc1ncc(-c2nc(N3CCOCC3)nc3c(CN4CCC(C(C)(C)O)CC4)cc(F)cc23)cc1NS(C)(=O)=O` ?
3190

---

- test.details: Pharmacokinetics in patients after a single dose
- Format: in vivo, human
- condition: human, serum, oral; single dose, 140 mg, mean ± SD
measurement.type: AUC(0-t)

Which measured AUC(0-t) value corresponds to COc1ncc(-c2nc(N3CCOCC3)nc3c(CN4CCC(C(C)(C)O)CC4)cc(F)cc23)cc1NS(C)(=O)=O [YY-20394] ?
14200 ng·h/mL

---

- test.details: Pharmacokinetics in patients after a single dose
- Format: in vivo, human
- condition: human, serum, oral; single dose, 200 mg, mean ± SD
measurement.type: Vd/F (L)
API: value field is a number in L; no unit string.

Fill blank: measured Vd/F of the compound COc1ncc(-c2nc(N3CCOCC3)nc3c(CN4CCC(C(C)(C)O)CC4)cc(F)cc23)cc1NS(C)(=O)=O [YY-20394] is ____.
318

---

- test.details: Pharmacokinetics in patients after multiple administrations
- Assay type: in vivo, human
- condition: human, serum, oral, 140 mg, mean ± SD, read-out: MRT0→t
measurement.type: MRT last (h)
Form entry: value (h) — number only.

Which value of MRT last has been reported for `COc1ncc(-c2nc(N3CCOCC3)nc3c(CN4CCC(C(C)(C)O)CC4)cc(F)cc23)cc1NS(C)(=O)=O` in the records?
23.4

---

- test.details: Pharmacokinetics in patients after a single dose
- Format: in vivo, human
- condition: human, serum, oral; single dose, 140 mg, mean ± SD; read-out: MRT0→∞
- From the text: Additional File 5: Table S3. Mean pharmacokinetic parameters of patients after a single dose in each dosage group
measurement.type: MRT inf (h)
Give your result in h as a bare value.

Given the compound `COc1ncc(-c2nc(N3CCOCC3)nc3c(CN4CCC(C(C)(C)O)CC4)cc(F)cc23)cc1NS(C)(=O)=O` , what is its reported MRT inf?
24.8
